Source: ChEMBL document CHEMBL5344414

# experimental-system: BCL2L1/BAD (Homo sapiens)
# Sequence (Q92934 whole entry, the tested form may be a part): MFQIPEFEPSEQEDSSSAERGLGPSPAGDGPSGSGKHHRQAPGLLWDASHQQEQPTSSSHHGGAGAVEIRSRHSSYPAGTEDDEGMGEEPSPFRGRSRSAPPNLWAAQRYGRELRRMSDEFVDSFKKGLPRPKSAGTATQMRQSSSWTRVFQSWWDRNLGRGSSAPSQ
# Sequence (Q07817 whole entry, the tested form may be a part): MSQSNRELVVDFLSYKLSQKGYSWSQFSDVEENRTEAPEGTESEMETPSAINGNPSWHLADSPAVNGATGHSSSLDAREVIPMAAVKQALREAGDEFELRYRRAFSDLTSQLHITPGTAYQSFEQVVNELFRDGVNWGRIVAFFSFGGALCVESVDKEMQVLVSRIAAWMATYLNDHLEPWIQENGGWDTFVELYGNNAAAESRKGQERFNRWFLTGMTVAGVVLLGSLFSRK
# assay-details: Inhibition of BAD/His-SUMO tagged BCL-XL (1 to 209 residues; missing 27 to 82 residues) (unknown origin) overexpressed in Escherichia coli BL21 protein-protein interaction by fluorescence anisotropy competition assay
Where a SMILES comes first, the peptide text is derived from it.
measurement-label: pIC50
// pIC50 is dimensionless: -log10 of concentration (M)

INSERT INTO results (compound, measured) VALUES
  ('CSCC[C@H](NC(=O)[C@H](CS)NC(=O)[C@H](CCCNC(=N)N)NC(=O)[C@H](CC(C)C)NC(=O)[C@H](CCC(=O)O)NC(=O)[C@H](CS)NC(=O)CNC(=O)[C@H](Cc1ccc(O)cc1)NC(=O)[C@H](CCCNC(=N)N)NC(C)=O)C(=O)N[C@@H](CO)C(=O)N[C@@H](CC(=O)O)C(=O)N[C@@H](CCC(=O)O)C(=O)N[C@@H](Cc1ccccc1)C(=O)N[C@H](C(=O)N[C@@H](CC(=O)O)C(=O)N[C@@H](CO)C(=O)N[C@@H](Cc1ccccc1)C(=O)N[C@@H](CCCCN)C(=O)N[C@@H](CCCCN)C(N)=O)C(C)C (Ac-RYGCELRCMSDEFVDSFKK-NH2)', 5.17);

Switching to the query record.
Q: Provide value of pIC50 for this record tested with BCL2L1/BAD (Homo sapiens): CSCC[C@H](NC(=O)[C@H](CCCNC(=N)N)NC(=O)[C@H](CCCNC(=N)N)NC(=O)[C@H](CC(C)C)NC(=O)[C@@H]1CS2=S(C[C@H](NC(C)=O)C(=O)N[C@@H](Cc3ccc(O)cc3)C(=O)NCC(=O)N[C@@H](CCCNC(=N)N)C(=O)N1)C(=O)NC2=O)C(=O)N[C@@H](CO)C(=O)N[C@@H](CC(=O)O)C(=O)N[C@@H](CCC(=O)O)C(=O)N[C@@H](Cc1ccccc1)C(=O)N[C@H](C(=O)N[C@@H](CC(=O)O)C(=O)N[C@@H](CO)C(=O)N[C@@H](Cc1ccccc1)C(=O)N[C@@H](CCCCN)C(=O)N[C@@H](CCCCN)C(N)=O)C(C)C (some centres not stated)
A: 5.26

====

# experimental-system: BCL2L1/BAD (Homo sapiens)
# assay-details: Inhibition of BAD/His-SUMO tagged BCL-XL (1 to 209 residues; missing 27 to 82 residues) (unknown origin) overexpressed in Escherichia coli BL21 protein-protein interaction by fluorescence anisotropy competition assay
measurement-label: pIC50
Notebook: values listed as pIC50 are -log10 of the concentration (mol/L).

Q: // lookup pIC50 for CSCC[C@@H]1NC(=O)[C@@H](NC(=O)[C@H](CCCNC(=N)N)NC(=O)[C@H](CC(C)C)NC(=O)[C@H](CCC(=O)O)NC(=O)[C@H](CCCNC(=N)N)NC(=O)CNC(=O)[C@H](Cc2ccc(O)cc2)NC(=O)[C@H](CCCNC(=N)N)NC(C)=O)CS2=S(C[C@@H](C(=O)N[C@@H](Cc3ccccc3)C(=O)N[C@H](C(=O)N[C@@H](CC(=O)O)C(=O)N[C@@H](CO)C(=O)N[C@@H](Cc3ccccc3)C(=O)N[C@@H](CCCCN)C(=O)N[C@@H](CCCCN)C(N)=O)C(C)C)NC(=O)[C@H](CC(=O)O)NC(=O)[C@H](CO)NC1=O)C(=O)NC2=O (some centres not stated)
A: 5.62
